System: Leptosphaeria nodorum (LEPTNO)
Test: In vitro fungitoxicity assay against Leptosphaeria nodorum in copper-minus / copper-plus liquid medium
Assay type: cell-based
Conditions: Parastagonospora nodorum; test compound 0.05 μg/mL, copper-minus medium, 25° C., 72 h, growth by light scattering; read-out: LEPTNO % Inhn. Minus Copper Observed
experimentalReadout: inhibition of growth at 0.05 µg/mL (%)

chemsmiles=O=C(N/N=C/c1cc(Cl)cc(Cl)c1O)c1sc(C(F)(F)F)nc1C(F)(F)F experimentalreadout="inhibition of growth at 0.05 µg/mL" units=% assayresult=49.8
chemsmiles=C/C(=N\NC(=O)c1ccsc1)c1cc(Cl)cc(Cl)c1O experimentalreadout="inhibition of growth at 0.05 µg/mL" units=% assayresult=0
chemsmiles=O=C(N/N=C/c1cc(Cl)cc(Cl)c1O)c1ccco1 experimentalreadout="inhibition of growth at 0.05 µg/mL" units=% assayresult=0
chemsmiles=C/C(=N\NC(=O)c1sc(C)nc1C)c1cc(Cl)cc(Cl)c1O experimentalreadout="inhibition of growth at 0.05 µg/mL" units=% assayresult=0
chemsmiles=Cc1occc1C(=O)N/N=C/c1cc(Cl)cc(Cl)c1O experimentalreadout="inhibition of growth at 0.05 µg/mL" units=% assayresult=8.7
